System: SK-MEL-28 melanoma
EXPERIMENTAL_PROTOCOL: NCI tumour cell line growth inhibition, 48 h
VALUE_KIND: TGI

COMPOUND: CN(CSc1ccc(Cl)cc1)c1ccc(CSc2ccc(Cl)cc2)cc1
TGI: 19.6 µM

COMPOUND: Cc1cc(C)c(S(=O)(=O)N(CCCN)OCCON(CCCN)S(=O)(=O)c2c(C)cc(C)cc2C)c(C)c1
TGI: 31 µM

COMPOUND: CCN1C(=O)N(CC)C2C1NC(=S)N2/N=C/C=C/c1ccccc1OC (centres undefined)
TGI: > 100 µM

Query :: Reported TGI, compound `FC(F)(F)c1ccc(-c2ncc(-c3ccc(C(F)(F)F)cc3)c(NCc3cc(C(F)(F)F)cc(C(F)(F)F)c3)n2)cc1` : ____
Result :: > 100 µM

====

Tested on: NCI-H23 lung
EXPERIMENTAL_PROTOCOL: NCI tumour cell line growth inhibition, 48 h
Catalogue of GI50 readings, one per entry.

Recorded GI50, per entry:
COMPOUND: Brc1ccc(Nc2nc3ccccc3nc2Nc2ccc(Br)cc2)cc1
GI50: 1.32 µM
//
COMPOUND: O=C(/C=C/c1nnc2n(Cc3ccccc3)c(=O)c3c4c(sc3n12)CCCC4)c1ccccc1
GI50: > 100 µM
//
COMPOUND: CC(C)OCc1cc(CN2CCN(c3cccc(Cl)c3)CC2)c(O)c2ncccc12
GI50: 1.03 µM
//
COMPOUND: NC(=N\N=C/c1ccc(Cl)cc1Cl)/C(N)=N\N=C/c1ccc(Cl)cc1Cl
GI50: 39.3 µM
//
COMPOUND: CCN(CC)CC(O)COc1c(Br)c(Br)c(Br)c2c1OC(C)(C)C2 (stereo not given)
GI50: 9.04 µM

Query :: Reported GI50, compound `FC(F)(F)c1ccc(-c2ncc(-c3ccc(C(F)(F)F)cc3)c(NCc3cc(C(F)(F)F)cc(C(F)(F)F)c3)n2)cc1` : ____
Result :: 3.24 µM

Query :: Reported GI50, compound `c1ccc(-c2cn(-c3ccccc3)c(-c3ccccc3)n2)cc1` : ____
Result :: 16.6 µM

Query :: Reported GI50, compound `O=C1C(=C([O-])c2ccccc2)C(=O)c2ccccc21.O=C1C(=C([O-])c2ccccc2)C(=O)c2ccccc21.[Co+2]` : ____
Result :: > 100 µM

Query :: Reported GI50, compound `O=C([O-])CCc1ccccc1.O=C([O-])CCc1ccccc1.O=C([O-])CCc1ccccc1.O=C([O-])CCc1ccccc1.[Mo+2].[Mo+2]` : ____
Result :: > 100 µM

Query :: Reported GI50, compound `C/C(=N\O)c1cccc(Nc2cc(-c3ccccc3)nc3c(O)cccc23)c1` : ____
Result :: 4.2 µM

====

Tested on: TK-10 renal
EXPERIMENTAL_PROTOCOL: NCI tumour cell line growth inhibition, 48 h
Catalogue of TGI readings, one per entry.

Recorded TGI, per entry:
COMPOUND: O=C1NC(=O)C(c2ccccc2)=C1Nc1ccccc1
RESULT: > 25 µM
--
COMPOUND: Cc1cc2c(cc1C)[n+](=O)c(C(=O)CC(=O)C(=O)Nc1ccccc1C(C)C)c(C)n2[O-]
RESULT: > 100 µM
--
COMPOUND: O=C1/C(=C/c2ccc(Cl)cc2)N=C(c2ccccc2)N1/N=C/c1ccccc1O
RESULT: 12.6 µM

Now turn to the next compound.
Query :: Request: TGI, test system TK-10 renal, entry `NCCCn1c2c(c3ccc([N+](=O)[O-])cc3c1=O)C(=O)c1cc(F)ccc1-2`
Result :: 2.7 µM
